- experimentDescription: Stability and degradability of biogels in human plasma (Example 8)
- Format: in vitro ADME
- experimentalContext: human, plasma; 37° C., in solution, 14 μM
Square brackets hold non-standard residues; d marks the D form. Peptide text beside a SMILES is read from it. Dmt = Cc1cc(O)cc(C)c1C[C@H](N)C(=O)O; β3hF = N[C@H](CC(=O)O)Cc1ccccc1
Listed here: items and their measured half-life at 14 μM.

>>> experimentalresult("Cc1cc(O)cc(C)c1C[C@H](N)C(=O)N[C@H](CCCCN)C(=O)N[C@@H](Cc1ccccc1)C(=O)N[C@@H](Cc1ccccc1)C(=O)N[C@@H](CCC(N)=O)C(=O)N[C@@H](Cc1ccccc1)C(=O)N[C@@H](CCC(N)=O)C(=O)N[C@@H](Cc1ccccc1)C(=O)N[C@@H](CCCCN)C(N)=O [CM-136] (H-[Dmt][dK]FFQFQFK-NH2)")
"~0.183 h"

-- ask Let me know recorded half-life at 14 μM for Cc1cc(O)cc(C)c1C[C@H](N)C(=O)N[C@H](CCCNC(=N)N)C(=O)N[C@@H](Cc1ccccc1)C(=O)N[C@@H](Cc1ccccc1)C(=O)N[C@@H](CCC(N)=O)C(=O)N[C@H](CC(=O)N[C@@H](Cc1ccccc1)C(=O)N[C@@H](CCC(N)=O)C(=O)N[C@@H](Cc1ccccc1)C(=O)N[C@@H](CCCCN)C(N)=O)Cc1ccccc1 [CM-137] (H-[Dmt][dR]FFQ[β3hF]FQFK-NH2; N-terminus assumed) , thanks.
-- reply ~2.05 h
